# STUDY_SYSTEM: Cytochrome P450 2C9 (Homo sapiens)
# Sequence (P11712 whole entry): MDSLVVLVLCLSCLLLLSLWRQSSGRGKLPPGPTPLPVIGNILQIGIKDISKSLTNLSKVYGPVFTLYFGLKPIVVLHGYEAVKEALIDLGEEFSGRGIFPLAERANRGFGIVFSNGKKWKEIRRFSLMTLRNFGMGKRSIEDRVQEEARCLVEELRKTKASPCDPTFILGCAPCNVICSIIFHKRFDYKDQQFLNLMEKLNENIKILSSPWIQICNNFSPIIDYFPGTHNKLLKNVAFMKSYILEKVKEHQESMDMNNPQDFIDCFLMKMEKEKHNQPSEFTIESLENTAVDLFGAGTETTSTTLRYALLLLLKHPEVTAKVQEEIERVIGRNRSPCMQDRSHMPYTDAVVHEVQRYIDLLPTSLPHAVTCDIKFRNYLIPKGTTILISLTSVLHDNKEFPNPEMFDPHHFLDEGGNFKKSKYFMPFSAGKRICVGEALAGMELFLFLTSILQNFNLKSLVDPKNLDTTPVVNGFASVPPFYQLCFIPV

{"COMPOUND": "C1CNCCOCCNCCN1", "STUDY_SYSTEM": "Cytochrome P450 2C9 (Homo sapiens)", "AC50": "17.8 µM (inconclusive)"}
{"COMPOUND": "COc1cccc(-c2ccc3ncnc(NCc4ccc(OC)cc4OC)c3c2)c1", "STUDY_SYSTEM": "Cytochrome P450 2C9 (Homo sapiens)", "AC50": "0.501 µM (inconclusive)"}
{"COMPOUND": "Cc1cc(C)cc(N(C(=O)c2ccccn2)C(C(=O)NC2CCCCC2)c2cccs2)c1 (stereo not drawn)", "STUDY_SYSTEM": "Cytochrome P450 2C9 (Homo sapiens)", "AC50": "15.8 µM (inconclusive)"}
{"COMPOUND": "O=C(Cn1nnc2ccccc21)N/N=C\\C=C\\c1ccccc1", "STUDY_SYSTEM": "Cytochrome P450 2C9 (Homo sapiens)", "AC50": "12.6 µM (inconclusive)"}
{"COMPOUND": "CC(C)c1ccc(-c2nnn(CCC(=O)O)n2)cc1", "STUDY_SYSTEM": "Cytochrome P450 2C9 (Homo sapiens)", "AC50": "31.6 µM (inconclusive)"}
{"COMPOUND": "Cc1ccc(C(=O)NC(=S)N2CC(C)OC(C)C2)cc1[N+](=O)[O-] (stereo not drawn)", "STUDY_SYSTEM": "Cytochrome P450 2C9 (Homo sapiens)", "AC50": "14.1 µM (inconclusive)"}
{"COMPOUND": "Cc1cc(C)nc(NC(=O)c2cccc([N+](=O)[O-])c2C)n1", "STUDY_SYSTEM": "Cytochrome P450 2C9 (Homo sapiens)", "AC50": "11.2 µM (inconclusive)"}
{"COMPOUND": "COc1ccc(NC(=O)c2cccs2)c([N+](=O)[O-])c1", "STUDY_SYSTEM": "Cytochrome P450 2C9 (Homo sapiens)", "AC50": "7.94 µM (inconclusive)"}

====

List of EC50 values.
# Tested on: Streptococcus sp. 'group A'
# PROCEDURE_SUMMARY: Streptococcus pyogenes SK(-)GAS viability under kanamycin – luminescence, BacTiterGlo, confirmation, counter-screen for streptokinase expression inhibitor project, dose response (AID 1900)
# Format: functional, organism-based
Calls of active or inactive are those of the source.

{"COMPOUND": "CC(C)Cn1c(N)c(C(=O)NCc2cccs2)c2nc3ccccc3nc21", "STUDY_SYSTEM": "Streptococcus sp. 'group A'", "EC50": "3.56 µM (active)"}
{"COMPOUND": "CCOC(=O)c1c(NC(=O)c2c(N)n(CCCOC)c3nc4ccccc4nc23)sc2c1CCCC2", "STUDY_SYSTEM": "Streptococcus sp. 'group A'", "EC50": "4.29 µM (active)"}
{"COMPOUND": "CC(C)=CCc1c(-c2ccc(O)cc2O)oc2cc3c(c(O)c2c1=O)C=CC(C)(C)O3", "STUDY_SYSTEM": "Streptococcus sp. 'group A'", "EC50": "3.36 µM (active)"}
{"COMPOUND": "CC(=O)NC[C@H]1CN(c2ccc(N3CCOCC3)c(F)c2)C(=O)O1", "STUDY_SYSTEM": "Streptococcus sp. 'group A'", "EC50": "0.17 µM (active)"}
{"COMPOUND": "CCC(CC)C1=NN2C(=N)/C(=C\\c3cc(C)n(-c4cccc(C)c4)c3C)C(=O)N=C2S1", "STUDY_SYSTEM": "Streptococcus sp. 'group A'", "EC50": "7.3 µM (active)"}
{"COMPOUND": "COc1ccc(O)c(C(=O)c2coc(=N)c(C(=O)Nc3ccc(SC(F)F)cc3)c2)c1", "STUDY_SYSTEM": "Streptococcus sp. 'group A'", "EC50": "40.6 µM (active)"}
{"COMPOUND": "CC1CC(C)CN(S(=O)(=O)c2ccc(C(=O)Nc3nnc(C4CC4)o3)cc2)C1 (configuration not stated)", "STUDY_SYSTEM": "Streptococcus sp. 'group A'", "EC50": "1.25 µM (active)"}
